Test system: P. falciparum 3D7 strain
Experimental Protocol: SYBR Green I antimalarial activity, P. falciparum 3D7
Type: cell-based, Plasmodium falciparum
Test Settings: Plasmodium falciparum, 3D7, 48 h, read-out: IC50 P. faldparum 3D7
Measurement Type: IC50 (nM)
Give bare numbers, in nM.

Request: Which value of IC50 has been reported for CCCCCCCCCCCCCCCc1c(O)c(OC)cc(OC)c1Cl [Hierridin C] in the records?
Result: 1520
